The origin of these recorded values is patent US9260439B2.

- experimental system: truncated PI3Kα (p110α/iSH2 p85α) (Homo sapiens (Human), UniProt P42336)
- Sequence (P42336 whole entry, the tested form may be a part): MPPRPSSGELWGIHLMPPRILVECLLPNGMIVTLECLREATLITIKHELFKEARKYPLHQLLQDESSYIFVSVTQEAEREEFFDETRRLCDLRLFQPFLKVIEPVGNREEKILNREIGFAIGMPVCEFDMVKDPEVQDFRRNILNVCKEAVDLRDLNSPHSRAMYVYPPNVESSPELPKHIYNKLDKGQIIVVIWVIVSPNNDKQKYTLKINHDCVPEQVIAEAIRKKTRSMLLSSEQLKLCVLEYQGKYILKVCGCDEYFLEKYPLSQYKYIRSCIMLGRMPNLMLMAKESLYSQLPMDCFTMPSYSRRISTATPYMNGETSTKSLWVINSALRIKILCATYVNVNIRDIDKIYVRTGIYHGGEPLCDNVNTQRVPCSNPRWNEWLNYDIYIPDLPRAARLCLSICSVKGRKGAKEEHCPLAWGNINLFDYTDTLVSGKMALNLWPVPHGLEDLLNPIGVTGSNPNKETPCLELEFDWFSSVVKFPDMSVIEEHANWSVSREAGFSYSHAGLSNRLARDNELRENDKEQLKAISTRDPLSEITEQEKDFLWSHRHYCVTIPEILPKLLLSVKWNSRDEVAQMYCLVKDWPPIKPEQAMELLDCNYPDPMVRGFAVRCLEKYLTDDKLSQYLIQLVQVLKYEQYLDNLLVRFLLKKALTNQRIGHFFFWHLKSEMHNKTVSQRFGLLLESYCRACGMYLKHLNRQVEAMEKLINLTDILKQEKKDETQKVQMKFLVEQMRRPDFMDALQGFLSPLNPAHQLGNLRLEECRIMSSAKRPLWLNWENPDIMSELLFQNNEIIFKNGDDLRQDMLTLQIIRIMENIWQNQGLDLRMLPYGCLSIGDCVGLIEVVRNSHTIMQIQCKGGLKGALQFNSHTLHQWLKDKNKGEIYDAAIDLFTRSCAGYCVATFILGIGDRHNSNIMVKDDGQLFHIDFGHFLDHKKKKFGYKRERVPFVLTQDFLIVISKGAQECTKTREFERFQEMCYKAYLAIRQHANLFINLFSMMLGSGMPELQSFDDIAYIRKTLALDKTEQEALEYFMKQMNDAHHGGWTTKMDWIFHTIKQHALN
- procedure summary: PI3KA_Act fluorescence polarization kinase assay (Ki)
- test context: 1 mM ATP
Counter-ions that a name gives are not always drawn.
value type: Ki

// below: answered compounds
- compound: "[2H]C1([2H])OC([2H])([2H])C([2H])([2H])N(c2nc(-c3cnc(N)nc3)c3c(n2)N([C@@]2(C)CCN(C(=O)C(C)(C)N)C2)CC3)C1([2H])[2H] [Example 10, hydrochloride]"
  Ki: "< 0.018 nM"
- compound: "C[C@H]1COCCN1c1nc(-c2cnc(N)nc2)c2c(n1)N([C@@]1(C)CCN(C(=O)C3(F)CNC3)C1)CC2 [Example 496, hydrochloride]"
  Ki: "< 0.018 nM"

Next, consider the following compound.
Exercise: Name the reported Ki value associated with the compound `[2H]C1([2H])OC([2H])([2H])C([2H])([2H])N(c2nc(-c3cnc(N)nc3)c3c(n2)N([C@@]2(C)CCN(C(=O)C4(C)CC4)C2)CC3)C1([2H])[2H]`
Solution: < 0.018 nM

----------
- experimental system: truncated PI3Kα (p110α/iSH2 p85α) (Homo sapiens (Human), UniProt P42336)
- procedure summary: PI3KA_Act fluorescence polarization kinase assay (Ki)
- Format: biochemical
- test context: 1 mM ATP
value type: PI3KA_Act Ki

- compound structure string: "COC(=O)N1CC[C@](C)(N2CCc3c(-c4cnc(N)nc4)nc(N4CCOC[C@@H]4C)nc32)C1"
  PI3KA_Act Ki: "<0.018 nM"

Exercise: Name the reported PI3KA_Act Ki value associated with the compound `CC1(C)COC(N2CC[C@](C)(N3CCc4c(-c5cnc(N)nc5)nc(N5CCOCC5)nc43)C2)=N1`
Solution: <0.018 nM

Exercise: Name the reported PI3KA_Act Ki value associated with the compound `CN(C)C(C)(C)C(=O)N1CC[C@](C)(N2CCc3c(-c4cnc(N)nc4)nc(N4CCOCC4)nc32)C1`
Solution: <0.018 nM

----------
In this section we review reported PI3KA_Act Ki values for a set of compounds.
- experimental system: truncated PI3Kα (p110α/iSH2 p85α) (Homo sapiens (Human))
- procedure summary: PI3KA_Act fluorescence polarization kinase assay (Ki)
- Type: biochemical
- test context: 1 mM ATP

// below: answered compounds
- compound: "CCC(C)(N)C(=O)N1CC[C@](C)(N2CCc3c(-c4cnc(N)nc4)nc(N4CCOCC4)nc32)C1.Cl (stereo partly drawn) [Example 290]"
  experimental system: "truncated PI3Kα (p110α/iSH2 p85α) (Homo sapiens (Human))"
  PI3KA_Act Ki: "<0.018 nM"
- compound: "C[C@]1(N2CCc3c(-c4cnc(N)nc4)nc(N4CCOCC4)nc32)CCN(C(=O)[C@H]2CCCN2)C1.Cl [Example 382]"
  experimental system: "truncated PI3Kα (p110α/iSH2 p85α) (Homo sapiens (Human))"
  PI3KA_Act Ki: "<0.018 nM"

Next, consider the following compound.
Exercise: Form field - read-out: PI3KA_Act Ki; system: truncated PI3Kα (p110α/iSH2 p85α) (Homo sapiens (Human)); submitted item: C[C@]1(N2CCc3c(-c4cnc(N)nc4)nc(N4CCOCC4)nc32)CCN(C(=O)N2CCC2)C1 [Example 360]
Solution: <0.018 nM

----------
In this section we review reported PI3KA_Act Ki values for a set of molecules.
- experimental system: truncated PI3Kα (p110α/iSH2 p85α) (Homo sapiens (Human), UniProt P42336)
- procedure summary: PI3KA_Act fluorescence polarization kinase assay (Ki)
- Assay type: biochemical
- test context: 1 mM ATP
Give just the number in nM; leave the unit off.

// below: answered molecules
- molecule: "CC(C)(N)C(=O)N1CC[C@@H](N2CCc3c(-c4cnc(N)nc4)nc(N4CCOCC4)nc32)C1.Cl"
  value type: "PI3KA_Act Ki"
  val: 4.040
- molecule: "C[C@]1(N2CCc3c(-c4cnc(N)nc4)nc(N4CCOCC4)nc32)CCNC1=O"
  value type: "PI3KA_Act Ki"
  val: 31.787
- molecule: "C[C@H]1COCCN1c1nc(-c2cnc(N)nc2)c2c(n1)N(C(C)(C)C)CC2"
  value type: "PI3KA_Act Ki"
  val: 0.173

Exercise: Form field - read-out: PI3KA_Act Ki; system: truncated PI3Kα (p110α/iSH2 p85α) (Homo sapiens (Human), UniProt P42336); submitted item: `C[C@H]1COCCN1c1nc(-c2cnc(N)nc2)c2c(n1)N([C@@]1(C)CCN(C(=O)C3(CN)CC3)C1)CC2.Cl`
Solution: 0.061

Exercise: Form field - read-out: PI3KA_Act Ki; system: truncated PI3Kα (p110α/iSH2 p85α) (Homo sapiens (Human), UniProt P42336); submitted item: `CC(=O)NCC(=O)N1CC(N2CCc3c(-c4cnc(N)nc4)nc(N4CCOCC4)nc32)C1`
Solution: 0.898

Exercise: Form field - read-out: PI3KA_Act Ki; system: truncated PI3Kα (p110α/iSH2 p85α) (Homo sapiens (Human), UniProt P42336); submitted item: C[C@@H]1COCCN1c1nc(-c2cnc(N)nc2)c2c(n1)N(C1(C)CCN(C(=O)OC(C)(C)C)C1)CC2 (stereo partly drawn)
Solution: 0.164

----------
- experimental system: truncated PI3Kα (p110α/iSH2 p85α) (Homo sapiens (Human))
- procedure summary: PI3KA_Act fluorescence polarization kinase assay (Ki)
- Format: biochemical
- test context: 1 mM ATP
In this section we review reported PI3KA_Act Ki values for a set of compounds.
Give just the number in nM; leave the unit off.

// below: answered compounds
- compound structure string: "CC1(C(=O)N2CC[C@@](C)(N3CCc4c(-c5cnc(N)nc5)nc(N5CCOCC5)nc43)C2)CC1"
  val: 0.152
- compound structure string: "C[C@@H](O)C(=O)N1CC[C@](C)(N2CCc3c(-c4cnc(N)nc4)nc(N4CCOCC4)nc32)C1"
  val: 0.041

Next, consider the following compound.
Exercise: Name the reported PI3KA_Act Ki value associated with the compound `CN(C)C(=O)CN1CC[C@@](C)(N2CCc3c(-c4cnc(N)nc4)nc(N4CCOCC4)nc32)C1`
Solution: 0.872

----------
- experimental system: truncated PI3Kα (p110α/iSH2 p85α) (Homo sapiens (Human), UniProt P42336)
- procedure summary: PI3KA_Act fluorescence polarization kinase assay (Ki)
- Type: biochemical
- test context: 1 mM ATP
value type: PI3KA_Act Ki

// below: answered compounds
- compound: "CNS(=O)(=O)N1CCC(C)(N2CCc3c(-c4cnc(N)nc4)nc(N4CCOCC4)nc32)C1 (racemic)"
  experimental system: "truncated PI3Kα (p110α/iSH2 p85α) (Homo sapiens (Human), UniProt P42336)"
  PI3KA_Act Ki: "<0.018 nM"
- compound: "CNS(=O)(=O)N1CC[C@](C)(N2CCc3c(-c4cnc(N)nc4)nc(N4CCOCC4)nc32)C1"
  experimental system: "truncated PI3Kα (p110α/iSH2 p85α) (Homo sapiens (Human), UniProt P42336)"
  PI3KA_Act Ki: "<0.018 nM"

Next, consider the following compound.
Exercise: Name the reported PI3KA_Act Ki value associated with the compound `CCOC(=O)N1CC[C@](C)(N2CCc3c(-c4cnc(N)nc4)nc(N4CCOCC4)nc32)C1`
Solution: <0.018 nM
